Assay: Clearance in iv dosed Sprague-Dawley rat
Type: ADME, organism-based
Details: in vivo
Endpoint: clearance (mL/min/kg)
Just the number in mL/min/kg, nothing appended.

query: I would be grateful if you could share the reported clearance for CCS(=O)(=O)n1c2c(c3cc(C(=O)N4CCC(C)CC4)ccc31)CN(C1CCOCC1)CC2 .
result: 28

====

Molecular target: Cannabinoid receptor 1 (Homo sapiens)
Sequence (P21554 whole entry): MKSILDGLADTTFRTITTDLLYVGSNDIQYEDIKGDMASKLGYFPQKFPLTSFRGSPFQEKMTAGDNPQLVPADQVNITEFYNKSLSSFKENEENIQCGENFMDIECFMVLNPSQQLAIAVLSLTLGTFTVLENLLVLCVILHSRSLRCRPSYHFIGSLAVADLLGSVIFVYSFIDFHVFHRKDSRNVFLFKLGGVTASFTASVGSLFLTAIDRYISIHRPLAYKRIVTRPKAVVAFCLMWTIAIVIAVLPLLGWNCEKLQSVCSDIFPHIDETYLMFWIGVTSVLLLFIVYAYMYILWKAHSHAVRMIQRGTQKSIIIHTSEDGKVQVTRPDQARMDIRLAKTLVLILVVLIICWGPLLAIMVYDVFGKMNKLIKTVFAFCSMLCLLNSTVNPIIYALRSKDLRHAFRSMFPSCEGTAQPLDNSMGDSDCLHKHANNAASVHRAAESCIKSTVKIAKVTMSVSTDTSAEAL
Test: Agonist activity at human CB1 receptor expressed in HEK293 EBNA cells by [35S]GTPgamma binding assay
Assay type: functional, cell-based
As shown below, each of these compounds has a reported EC50 value.
Give just the number in nM; leave the unit off.

# annotated cases, reported EC50 shown
Compound | System | Output Unit | EC50
C=CCn1c2c(c3cc(C(=O)N4CCC(C)CC4)ccc31)CN(Cc1ccncc1)CC2 | Cannabinoid receptor 1 (Homo sapiens) | nM | 1360
C=CCn1c2c(c3cc(C(=O)N4CCC(C)CC4)ccc31)CN(C1CCCC1)CC2 | Cannabinoid receptor 1 (Homo sapiens) | nM | 33
CCCS(=O)(=O)n1c2c(c3cc(C(=O)N4CCC(C)CC4)ccc31)CN(C1CCOCC1)CC2 | Cannabinoid receptor 1 (Homo sapiens) | nM | 129
C=CCn1c2c(c3cc(C(=O)N4CCC(C)CC4)ccc31)CN(CC1CC1)CC2 | Cannabinoid receptor 1 (Homo sapiens) | nM | 768
CCOc1ccc(Cc2nc3cc(N(C)S(=O)(=O)c4cccs4)ccc3n2CC2CCCCC2)nc1 | Cannabinoid receptor 1 (Homo sapiens) | nM | 6

query: May I ask what EC50 has been recorded for CC1CCN(C(=O)c2ccc3c(c2)c2c(n3S(C)(=O)=O)CCN(C3CCCC3)C2)CC1 ?
result: 50

query: Please look up its EC50: C=CCn1c2c(c3cc(C(=O)N4CCC(C)CC4)ccc31)CN(C1CCSC1)CC2 (centres undefined)
result: 5

query: Give its EC50 value. Item: CCn1c2c(c3cc(C(=O)N4CCC(C)CC4)ccc31)CN(C1CCCC1)CC2
result: 63

query: Need EC50 of CC1CCN(C(=O)c2ccc3c(c2)c2c(n3S(=O)(=O)N(C)C)CCN(C3CCOCC3)C2)CC1 , thanks.
result: 71

====

Experiment: Aqueous solubility of the compound at pH 7.4
Type: physicochemical
Endpoint: solubility

Known results for molecules:
Compound Structure | Endpoint | Result
CCS(=O)(=O)n1c2c(c3cc(C(=O)N4CCC(C)CC4)ccc31)CN(C1CCOCC1)CC2 | solubility | 480 µg/mL
CCCCCOc1ccc(C(=O)c2cccc3ccccc23)c2ccccc12 | solubility | < 10 µg/mL
CCCCCc1cc(O)c2c(c1)OC(C)(C)[C@@H]1CCC(C)=C[C@@H]21 | solubility | < 10 µg/mL
CCOc1ccc(Cc2nc3cc(N(C)S(=O)(=O)c4cccs4)ccc3n2CC2CCCCC2)nc1 | solubility | < 10 µg/mL

query: Please give the measured solubility for this molecule: C=CCn1c2c(c3cc(C(=O)N4CCC(C)CC4)ccc31)CN(CC1CC1)CC2
result: 3300 µg/mL

====

Target: Cannabinoid receptor 1 (Homo sapiens)
Assay: Partial agonist activity at human CB1 receptor expressed in HEK293 EBNA cells by [35S]GTPgamma binding assay
Format: functional, cell-based
Endpoint: EC50 (nM)
Give the number; nM is assumed, so skip it.

query: I would be grateful if you could share the reported EC50 for CCCC(=O)n1c2c(c3cc(C(=O)N4CCC(C)CC4)ccc31)CN(C1CCOCC1)CC2 .
result: 117

Cited source for all entries: ChEMBL document CHEMBL1949601
